From: patent US8653087B2

biological target: B-Raf (V600E)-kinase (Homo sapiens (Human), UniProt P15056, V600E); experiment: Kinase test B-RAF (V600E); type: biochemical; details: B-RAF (V600E) kinase test, 250 μM ATP
Sequence (P15056 whole entry V600E): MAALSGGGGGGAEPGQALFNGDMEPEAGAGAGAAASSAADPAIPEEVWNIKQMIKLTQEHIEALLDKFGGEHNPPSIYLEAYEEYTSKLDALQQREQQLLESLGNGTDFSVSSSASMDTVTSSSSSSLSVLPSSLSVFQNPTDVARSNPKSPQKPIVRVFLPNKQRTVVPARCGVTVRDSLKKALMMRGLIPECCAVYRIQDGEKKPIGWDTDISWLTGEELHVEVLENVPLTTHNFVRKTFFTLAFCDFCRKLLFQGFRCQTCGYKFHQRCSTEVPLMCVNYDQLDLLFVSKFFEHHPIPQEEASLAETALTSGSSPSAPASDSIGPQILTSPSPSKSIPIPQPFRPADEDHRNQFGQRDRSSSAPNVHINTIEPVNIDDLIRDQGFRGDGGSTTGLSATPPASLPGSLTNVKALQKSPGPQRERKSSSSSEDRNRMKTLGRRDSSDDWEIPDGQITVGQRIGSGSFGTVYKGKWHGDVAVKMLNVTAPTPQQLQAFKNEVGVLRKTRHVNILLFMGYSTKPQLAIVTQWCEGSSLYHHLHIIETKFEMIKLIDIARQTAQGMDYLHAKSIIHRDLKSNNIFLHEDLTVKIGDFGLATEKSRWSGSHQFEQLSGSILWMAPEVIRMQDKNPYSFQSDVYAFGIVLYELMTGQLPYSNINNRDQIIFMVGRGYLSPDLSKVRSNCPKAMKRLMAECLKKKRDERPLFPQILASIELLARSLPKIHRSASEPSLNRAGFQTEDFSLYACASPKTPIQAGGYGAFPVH
pIC50: −log10 of the molar value.
Observed property: pIC50

(A) Cc1ccc(C(=O)NCc2cccc(C(C)(C)C)c2)cc1Nc1ncnc2cnc(N(C)CCN(C)C)nc12
(B) Cc1ccc(NC(=O)c2cccc(C(C)(C)C#N)c2)cc1Nc1ncnc2cnc(N3CC[C@@H](F)C3)nc12
**Q:** Consider A and B . Which of these has its pIC50 at a higher number? Please indicate the selected item by its label.
**A:** B
(B: 8.70, A: 6.93)

(a) Cc1ccc(C(=O)Nc2cc(Br)cc(C(F)(F)F)c2)cc1Nc1ncnc2c(N)nc(N3CCN(C)CC3)nc12
(b) Cc1ccc(C(=O)Nc2ccc(Cl)c(C(F)(F)F)c2)cc1Nc1ncnc2cnc(N(C)CCN(C)C)nc12
(c) Cc1ccc(NC(=O)c2cc(C(C)(C)C)on2)cc1Nc1ncnc2cnc(N3CCN(C)CC3)nc12
**Q:** Arrange the 3 entries by pIC50 so the values rise. Answer format: the labels, ordered as requested.
**A:** c, a, b
